# credit: the supplement of paper PMC7877785

# assay-remarks: self-splicing fitness, log relative to wild type (ln ratio); higher = more splicing; Tetrahymena group I intron in knt gene, E. coli kanamycin selection, DiMSum; sequences stand for … in CUCUCU…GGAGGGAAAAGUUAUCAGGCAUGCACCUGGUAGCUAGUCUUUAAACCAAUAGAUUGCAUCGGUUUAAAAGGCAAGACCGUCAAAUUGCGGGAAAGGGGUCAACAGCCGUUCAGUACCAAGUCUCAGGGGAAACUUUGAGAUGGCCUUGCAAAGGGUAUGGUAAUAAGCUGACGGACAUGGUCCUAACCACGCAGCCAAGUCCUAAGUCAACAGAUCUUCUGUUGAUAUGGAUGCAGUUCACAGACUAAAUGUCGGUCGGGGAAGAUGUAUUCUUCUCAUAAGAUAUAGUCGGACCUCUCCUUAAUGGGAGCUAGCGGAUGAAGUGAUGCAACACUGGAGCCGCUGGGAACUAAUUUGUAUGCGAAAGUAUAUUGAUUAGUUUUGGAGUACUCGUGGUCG;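 further: selection with 25 µg/mL kanamycin versus none on LB agar overnight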
# condition-label: 30 °C
result-type: self-splicing fitness (ln)

[[record]]
macromolecule_sequence = "CAGGAGCAAUAUUACGCUAC"
numeric_value = -1.78

[[record]]
macromolecule_sequence = "CAUCAGCAAUAUUACGCUUC"
numeric_value = -2.2

[[record]]
macromolecule_sequence = "GCGGAGCAAUAUUACGCCAA"
numeric_value = -2.32

[[record]]
macromolecule_sequence = "CGGCAGCAAUAUUACGGUUA"
numeric_value = -0.164

[[record]]
macromolecule_sequence = "UUACAGCAAUAUUACGCCUA"
numeric_value = 0.181

[[record]]
macromolecule_sequence = "ACUGAGCAAUAUUACGCUCA"
numeric_value = -3.23

[[record]]
macromolecule_sequence = "ACAGAGCAAUAUUACGGCGA"
numeric_value = -3.14

[[record]]
macromolecule_sequence = "AUUAAGCAAUAUUACGGUCU"
numeric_value = -0.183

[[record]]
macromolecule_sequence = "CUACAGCAAUAUUACGCGUA"
numeric_value = -3.72

[[record]]
macromolecule_sequence = "UCUCAGCAAUAUUACGCCAA"
numeric_value = -2.86

[[record]]
macromolecule_sequence = "GCGUAGCAAUAUUACGUGUA"
numeric_value = -3.63

[[record]]
macromolecule_sequence = "GGUCAGCAAUAUUACGUGAC"
numeric_value = -2.08

[[record]]
macromolecule_sequence = "UGCAAGCAAUAUUACGAGGU"
numeric_value = -3.41

[[record]]
macromolecule_sequence = "CCAGAGCAAUAUUACGAGUA"
numeric_value = -2.97

[[record]]
macromolecule_sequence = "AGUGAGCAAUAUUACGAUGC"
numeric_value = -2.29

[[record]]
macromolecule_sequence = "CUAUAGCAAUAUUACGUCCA"
numeric_value = -4.03

[[record]]
macromolecule_sequence = "CCACAGCAAUAUUACGGAUG"
numeric_value = -1.97

[[record]]
macromolecule_sequence = "CGUAAGCAAUAUUACGGUGA"
numeric_value = -3.29

[[record]]
macromolecule_sequence = "ACUCAGCAAUAUUACGAAGA"
numeric_value = -0.868

[[record]]
macromolecule_sequence = "CGUUAGCAAUAUUACGGAGG"
numeric_value = -1.43

[[record]]
macromolecule_sequence = "CAACAGCAAUAUUACGCUUG"
numeric_value = -2.71

[[record]]
macromolecule_sequence = "UCGAAGCAAUAUUACGGACU"
numeric_value = -1.07

[[record]]
macromolecule_sequence = "GGACAGCAAUAUUACGUUUG"
numeric_value = -0.577

[[record]]
macromolecule_sequence = "UUCGAGCAAUAUUACGGGAU"
numeric_value = -3.04

[[record]]
macromolecule_sequence = "CAUGAGCAAUAUUACGCGUU"
numeric_value = -4.13

[[record]]
macromolecule_sequence = "UACUAGCAAUAUUACGCAUC"
numeric_value = -2.36

[[record]]
macromolecule_sequence = "ACCUAGCAAUAUUACGCGGC"
numeric_value = -3.53

[[record]]
macromolecule_sequence = "UUUCAGCAAUAUUACGGAAG"
numeric_value = -1.69

[[record]]
macromolecule_sequence = "AUGCAGCAAUAUUACGGGGC"
numeric_value = -4.09

[[record]]
macromolecule_sequence = "AGAUAGCAAUAUUACGCGUA"
numeric_value = -1.2

[[record]]
macromolecule_sequence = "CUAAAGCAAUAUUACGGGGG"
numeric_value = -1.87

[[record]]
macromolecule_sequence = "CGUUAGCAAUAUUACGGCGG"
numeric_value = -0.628

